From: ChEMBL document CHEMBL3991601

biological target: Tyrosine-protein kinase BTK (Homo sapiens); also: in the data inactive means no Kd found up to 30 µM
Sequence (Q06187 whole entry): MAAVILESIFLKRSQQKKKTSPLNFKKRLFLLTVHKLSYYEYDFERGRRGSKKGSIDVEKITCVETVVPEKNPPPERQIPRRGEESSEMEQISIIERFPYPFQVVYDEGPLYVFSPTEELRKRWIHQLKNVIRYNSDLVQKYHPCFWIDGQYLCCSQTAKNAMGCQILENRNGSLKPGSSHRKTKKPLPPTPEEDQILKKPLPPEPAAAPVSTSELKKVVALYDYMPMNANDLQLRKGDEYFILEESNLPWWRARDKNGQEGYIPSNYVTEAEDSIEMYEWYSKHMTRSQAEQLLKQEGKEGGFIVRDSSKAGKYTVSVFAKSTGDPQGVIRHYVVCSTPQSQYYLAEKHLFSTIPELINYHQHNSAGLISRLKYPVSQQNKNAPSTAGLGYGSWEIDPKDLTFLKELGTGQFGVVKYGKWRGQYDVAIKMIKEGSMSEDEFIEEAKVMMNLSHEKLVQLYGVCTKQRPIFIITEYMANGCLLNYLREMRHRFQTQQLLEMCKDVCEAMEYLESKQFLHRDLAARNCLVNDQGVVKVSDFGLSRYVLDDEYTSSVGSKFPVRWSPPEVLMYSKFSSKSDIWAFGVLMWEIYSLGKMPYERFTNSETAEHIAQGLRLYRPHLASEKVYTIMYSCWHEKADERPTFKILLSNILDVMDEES
Activity calls are given as the source filed them.
Use one of these outcomes when replying: yes (active), no (inactive)

[Q] For this compound, state the assay outcome: CCN1CCN(Cc2ccc(-c3cc4c(N[C@H](C)c5ccccc5)ncnc4[nH]3)cc2)CC1
[A] no

[Q] Which outcome was entered for the compound COc1cc2nccc(Oc3ccc(NC(=O)Nc4cc(C)on4)c(Cl)c3)c2cc1OC in this test?
[A] no

[Q] Record request — test call for O=C(c1ccc(F)c(F)c1Nc1ccc(I)cc1F)N1CC(O)([C@@H]2CCCCN2)C1
[A] no

[Q] Could you check what this test reported for CNC(=O)c1cc(Oc2ccc(NC(=O)Nc3ccc(Cl)c(C(F)(F)F)c3)c(F)c2)ccn1 ?
[A] no

[Q] Please let me know the test result on file for CC[C@@H]1C(=O)N(C)c2cnc(Nc3ccc(C(=O)N[C@H]4CC[C@H](N5CCN(CC6CC6)CC5)CC4)cc3OC)nc2N1C(C)C .
[A] no

[Q] Field: outcome | Entry: CC[C@H](Nc1ncnc2[nH]cnc12)c1nc2cccc(F)c2c(=O)n1-c1ccccc1
[A] no

[Q] Dear colleague, could you share the recorded outcome for COc1cc(N2CCC(N3CCN(C)CC3)CC2)ccc1Nc1ncnc(Nc2ccccc2S(=O)(=O)C(C)C)n1 when you have a moment?
[A] yes
